Origin of the recorded values: the supplement of paper PMC11246515

- test.summary: total protein half-life in vivo (active degradation + dilution); higher = more stable protein
- protocol.conditions: wild type E. coli NCM3722; growth: P-lim chemostat; doubling time 12 h
observed.property: total protein half-life in vivo (h)
Hi! Could you send only the number? It should be in h, unit omitted.

Query (sequence): MAKHLFTSESVSEGHPDKIADQISDAVLDAILEQDPKARVACETYVKTGMVLVGGEITTSAWVDIEEITRNTVREIGYVHSDMGFDANSCAVLSAIGKQSPDINQGVDRADPLEQGAGDQGLMFGYATNETDVLMPAPITYAHRLVQRQAEVRKNGTLPWLRPDAKSQVTFQYDDGKIVGIDAVVLSTQHSEEIDQKSLQEAVMEEIIKPILPAEWLTSATKFFINPTGRFVIGGPMGDCGLTGRKIIVDTYGGMARHGGGAFSGKDPSKVDRSAAYAARYVAKNIVAAGLADRCEIQVSYAIGVAEPTSIMVETFGTEKVPSEQLTLLVREFFDLRPYGLIQMLDLLHPIYKETAAYGHFGREHFPWEKTDKAQLLRDAAGLK [P0A817] ; field requested: total protein half-life in vivo
9.5

What does the data say about its total protein half-life in vivo? Entry: `MRRTFIKKEGVVITTLARYLLGEKCGNRLKTIDELANECRSSVGLTQAALKTLESSGAIRIERRGRNGSYLVEMDNKALLTHVDINNVVCAMPLPYTRLYEGLASGLKAQFDGIPFYYAHMRGADIRVECLLNGVYDMAVVSRLAAESYLTQKGLCLALELGPHTYVGEHQLICRKGESANVKRVGLDNRSADQKIMTDVFFGGSDVERVDLSYHESLQRIVKGDVDAVIWNVVAENELTMLGLEATPLTDDPRFLQATEAVVLTRVDDYPMQQLLRAVVDKHALLAHQQRVVSGEQEPSY`
9.42

###

- test.summary: total protein half-life in vivo (active degradation + dilution); higher = more stable protein
- protocol.conditions: wild type E. coli NCM3722; growth: N-lim chemostat; doubling time 12 h
Task for the reader: assign each of the following sequences its reported total protein half-life in vivo.

I would be grateful if you could share the reported total protein half-life in vivo for MTIWVDADACPNVIKEILYRAAERMQMPLVLVANQSLRVPPSRFIRTLRVAAGFDVADNEIVRQCEAGDLVITADIPLAAEAIEKGAAALNPRGERYTPATIRERLTMRDFMDTLRASGIQTGGPDSLSQRDRQAFAAELEKWWLEVQRSRG [P0A8D3] .
4.5 h

Returns the measured total protein half-life in vivo for the input sequence. Input: `MNSHNITNESLALALMLVVVAILISHKEKLALEKDILWSVGRAIIQLIIVGYVLKYIFSVDDASLTLLMVLFICFNAAWNAQKRSKYIAKAFISSFIAITVGAGITLAVLILSGSIEFIPMQVIPIAGMIAGNAMVAVGLCYNNLGQRVISEQQQIQEKLSLGATPKQASAILIRDSIRAALIPTVDSAKTVGLVSLPGMMSGLIFAGIDPVKAIKYQIMVTFMLLSTASLSTIIACYLTYRKFYNSRHQLVVTQLKKK`
8.27 h

Look at this sequence and give its reported total protein half-life in vivo. `MAIALVTGGSRGIGRATALLLAQEGYTVAVNYQQNLHAAQEVMNLITQAGGKAFVLQADISDENQVVAMFTAIDQHDEPLAALVNNAGILFTQCTVENLTAERINRVLSTNVTGYFLCCREAVKRMALKNGGSGGAIVNVSSVASRLGSPGEYVDYAASKGAIDTLTTGLSLEVAAQGIRVNCVRPGFIYTEMHASGGEPGRVDRVKSNIPMQRGGQAEEVAQAIVWLLSDKASYVTGSFIDLAGGK`
8.32 h

Bench note: what total protein half-life in vivo did MSHLKDPTTQYYTGEYPKQKQPTPGIQAKMTPVPDCGEKTYVGSGRLKDRKALVTGGDSGIGRAAAIAYAREGADVAISYLPVEEEDAQDVKKIIEECGRKAVLLPGDLSDEKFARSLVHEAHKALGGLDIMALVAGKQVAIPDIADLTSEQFQKTFAINVFALFWLTQEAIPLLPKGASIITTSSIQAYQPSPHLLDYAATKAAILNYSRGLAKQVAEKGIRVNIVAPGPIWTALQISGGQTQDKIPQFGQQTPMKRAGQPAELAPVYVYLASQESSYVTAEVHGVCGGEHLG [P0AG84] show?
9.18 h

Given the sequence `MNMKTIEDVFIHLLSDTYSAEKQLTRALAKLARATSNEKLSQAFHAHLEETHGQIERIDQVVESESNLKIKRMKCVAMEGLIEEANEVIESTEKNEVRDAALIAAAQKVEHYEIASYGTLATLAEQLGYRKAAKLLKETLEEEKATDIKLTDLAINNVNKKAENKA` , what is its reported total protein half-life in vivo?
7.99 h

Param item = MNKRDAINHIRQFGGRLDRFRKSVGGSGDGGRNAPKRAKSSPKPVNRKTNVFNEQVRYAFHGALQDLKSKPFATFLTVMVIAISLTLPSVCYMVYKNVNQAATQYYPSPQITVYLQKTLDDDAAAGVVAQLQAEQGVEKVNYLSREDALGEFRNWSGFGGALDMLEENPLPAVAVVIPKLDFQGTESLNTLRDRITQINGIDEVRMDDSWFARLAALTGLVGRVSAMIGVLMVAAVFLVIGNSVRLSIFARRDSINVQKLIGATDGFILRPFLYGGALLGFSGALLSLILSEILVLRLSSAVAEVAQVFGTKFDINGLSFDECLLLLLVCSMIGWVAAWLATVQHLRHFTPE [P0AC30] ; retrieve measured total protein half-life in vivo.
12.3 h

###

- test.summary: total protein half-life in vivo (active degradation + dilution); higher = more stable protein
- protocol.conditions: wild type E. coli NCM3722; growth: N-lim chemostat; doubling time 6 h
For each record, write down the corresponding total protein half-life in vivo.
The answer is to be given in h; state only the numeric part.

Give its total protein half-life in vivo value. Item: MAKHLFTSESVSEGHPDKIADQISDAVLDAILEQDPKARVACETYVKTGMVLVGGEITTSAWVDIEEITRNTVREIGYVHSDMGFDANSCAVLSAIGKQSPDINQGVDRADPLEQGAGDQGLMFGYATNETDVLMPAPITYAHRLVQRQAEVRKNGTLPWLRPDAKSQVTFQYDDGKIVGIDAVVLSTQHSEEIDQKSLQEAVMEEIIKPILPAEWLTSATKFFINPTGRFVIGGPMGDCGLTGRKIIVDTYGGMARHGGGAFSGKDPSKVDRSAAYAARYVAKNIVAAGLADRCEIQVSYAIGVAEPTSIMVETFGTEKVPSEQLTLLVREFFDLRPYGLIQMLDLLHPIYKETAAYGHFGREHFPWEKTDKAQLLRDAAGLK [P0A817]
2.1

Any idea what total protein half-life in vivo was measured for `MDMHSGTFNPQDFAWQGLTLTPAAAIHIRELVAKQPGMVGVRLGVKQTGCAGFGYVLDSVSEPDKDDLLFEHDGAKLFVPLQAMPFIDGTEVDFVREGLNQIFKFHNPKAQNECGCGESFGV` ?
1.86

Endpoint output: total protein half-life in vivo of MDKQSLHETAKRLALELPFVELCWPFGPEFDVFKIGGKIFMLSSELRGVPFINLKSDPQKSLLNQQIYPSIKPGYHMNKKHWISVYPGEEISEALLRDLINDSWNLVVDGLAKRDQKRVRPG [P0AAT2] . Value?
4.78

###

So I've got a bunch of sequences here, and I need their total protein half-life in vivo values.
- test.summary: total protein half-life in vivo (active degradation + dilution); higher = more stable protein
- protocol.conditions: wild type E. coli NCM3722; growth: C-lim chemostat; doubling time 12 h
Answer shape: numeric part, then the unit.

I'd like to know its total protein half-life in vivo. The sequence in question is `MALLPDKEKLLRNFLRCANWEEKYLYIIELGQRLPELRDEDRSPQNSIQGCQSQVWIVMRQNAQGIIELQGDSDAAIVKGLIAVVFILYDQMTPQDIVNFDVRPWFEKMALTQHLTPSRSQGLEAMIRAIRAKAAALS`
9.46 h

Return reported total protein half-life in vivo; argument: `MRTQWPSPAKLNLFLYITGQRADGYHTLQTLFQFLDYGDTISIELRDDGDIRLLTPVEGVEHEDNLIVRAARLLMKTAADSGRLPTGSGANISIDKRLPMGGGLGGGSSNAATVLVALNHLWQCGLSMDELAEMGLTLGADVPVFVRGHAAFAEGVGEILTPVDPPEKWYLVAHPGVSIPTPVIFKDPELPRNTPKRSIETLLKCEFSNDCEVIARKRFREVDAVLSWLLEYAPSRLTGTGACVFAEFDTESEARQVLEQAPEWLNGFVAKGANLSPLHRAML`
10.5 h

###

- test.summary: total protein half-life in vivo (active degradation + dilution); higher = more stable protein
- protocol.conditions: E. coli NCM3722 delta-clpP; growth: N-lim chemostat; doubling time 6 h
Record form. Attribute: total protein half-life in vivo. Fill in for each entry.
Write the answer as a number in h, unit excluded.

GET /values?readout=total protein half-life in vivo&item= MKPSSSNSRSKGHAKARRKTREELDQEARDRKRQKKRRGHAPGSRAAGGNTTSGSKGQNAPKDPRIGSKTPIPLGVTEKVTKQHKPKSEKPMLSPQAELELLETDERLDALLERLEAGETLSAEEQSWVDAKLDRIDELMQKLGLSYDDDEEEEEDEKQEDMMRLLRGN [P0A8H6]
5.18

Please look up its total protein half-life in vivo: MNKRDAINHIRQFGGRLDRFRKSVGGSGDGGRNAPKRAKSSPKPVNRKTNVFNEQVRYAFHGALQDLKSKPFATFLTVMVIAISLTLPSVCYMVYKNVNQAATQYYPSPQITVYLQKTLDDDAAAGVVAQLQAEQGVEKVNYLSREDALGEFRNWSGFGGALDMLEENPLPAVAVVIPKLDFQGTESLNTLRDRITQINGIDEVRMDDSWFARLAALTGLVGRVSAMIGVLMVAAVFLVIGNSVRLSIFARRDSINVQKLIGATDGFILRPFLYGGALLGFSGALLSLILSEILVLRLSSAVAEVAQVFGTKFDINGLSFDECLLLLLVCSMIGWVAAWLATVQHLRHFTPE [P0AC30]
6.43
